B1: tRNA (parent)
chain: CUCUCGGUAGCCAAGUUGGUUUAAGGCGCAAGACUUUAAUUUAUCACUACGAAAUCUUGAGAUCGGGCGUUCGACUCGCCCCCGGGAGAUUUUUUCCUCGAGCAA

variants of: B1; experiment: nonsense suppression (GFP-seq) (ratio to wild type); higher = more function; SUP4oc tRNA, yeast GFP reporter sort-seq
This sample holds only a part of the variants without activity.
Collected nonsense suppression values appear next to each entry.

Mutation string: C1G C5G A31C G73A
nonsense suppression: ≤ 0.026
//
Mutation string: A23G A24C C34U C72A A89U
nonsense suppression: ≤ 0.026
//
Mutation string: U70A C80G
nonsense suppression: ≤ 0.026

Which nonsense suppression is listed for U17C G19A C27G ? ≤ 0.026

Which nonsense suppression is listed for U21C U35A C64G G66C C72G ? ≤ 0.026

Which nonsense suppression is listed for C11G A24U A62C C68G ? ≤ 0.026
